# study target: HLA-A*69:01
# protocol summary: IEDB peptide-MHC binding, purified MHC/direct/fluorescence; filed as Kd, often an IC50 or EC50 that approximates it; bounds were set here for any values at or beyond the usual limits of such assays
# run conditions: source organism: Haemophilus influenzae
reported metric: Kd (nM)
Give bare numbers, in nM.

Give HLA-A*69:01 Kd for the following sequence: DLNKVIQFL
352

###

# study target: HLA-A*29:02
# protocol summary: IEDB peptide-MHC binding, purified MHC/competitive/radioactivity; filed as Kd, often an IC50 or EC50 that approximates it; bounds were set here for any values at or beyond the usual limits of such assays
# run conditions: source organism: SARS coronavirus Tor2
Decide using Kd alone. Strictly below 90 nM: rule met. Equal to or above 90 nM: rule not met.

| sequence entry | study target | class assignment |
| --- | --- | --- |
| VFNNYMPYVF | HLA-A*29:02 | rule met |
| YYPSARIVY | HLA-A*29:02 | rule not met |

Criterion: Kd strictly below 90 nM. Is it met by FFASFYYIW ?
rule not met

Criterion: Kd strictly below 90 nM. Is it met by IGAGICASY ?
rule met

Criterion: Kd strictly below 90 nM. Is it met by LTGHMLDMY ?
rule met

Criterion: Kd strictly below 90 nM. Is it met by TSTGNYNYKY ?
rule not met

Criterion: Kd strictly below 90 nM. Is it met by LFTKFFYLL ?
rule not met

###

# study target: HLA-A*30:01
# protocol summary: IEDB peptide-MHC binding, purified MHC/competitive/radioactivity; filed as Kd, often an IC50 or EC50 that approximates it; bounds were set here for any values at or beyond the usual limits of such assays
# run conditions: source organism: Dengue virus 1 Brazil/97-11/1997
Field: pKd. Provide a value for each of the sequences that follow.
One number for each entry, as −log10 of the molar value.

| sequence entry | meas value |
| --- | --- |
| LSRNKKPRI | 5.11 |
| NAICSAVPVD | 4.92 |

Alright, here's another sequence for you.
Please give the documented pKd of RCLKPVILK
6.66

###

# study target: HLA-B*58:01
# protocol summary: IEDB peptide-MHC binding, purified MHC/direct/fluorescence; filed as Kd, often an IC50 or EC50 that approximates it; bounds were set here for any values at or beyond the usual limits of such assays
# run conditions: source organism: Rickettsia conorii
reported metric: Kd

Please give the documented Kd of RTGDIGCFK
≥ 20 µM

###

# study target: HLA-B*08:01
# protocol summary: IEDB peptide-MHC binding, purified MHC/direct/fluorescence; filed as Kd, often an IC50 or EC50 that approximates it; bounds were set here for any values at or beyond the usual limits of such assays
# run conditions: source organism: Comamonas sediminis
pKd: −log10 of the molar value.
reported metric: pKd

Please give the documented pKd of KSLGIDQIW
≤ 4.70

###

# study target: HLA-B*15:17
# protocol summary: IEDB peptide-MHC binding, purified MHC/direct/fluorescence; filed as Kd, often an IC50 or EC50 that approximates it; bounds were set here for any values at or beyond the usual limits of such assays
# run conditions: source organism: Vibrio vulnificus YJ016
pKd: −log10 of the molar value.
reported metric: pKd

Please give the documented pKd of LLRRRPYPL
≤ 4.70
